# System: CAKI-1 renal
# assayName: NCI-60 one-dose screen, 48 h (100 = growth as untreated, 0 = no growth, -100 = all killed)
# settings: 10 µM unless noted
# Description: Growth inhibition of the CAKI-1 human tumor cell line is measured as a screen for anti-cancer activity. Cells are grown in 96 well plates and exposed to the test compound for 48 hours. Compounds are tested at a single concentration, which is 10^-5 M for most compounds. The reported endpoint is percent growth (GI% or GIPRCNT), where numbers from 0 - 100% represent growth inhibition, and numbers from -100% - 0 represent cell death. For example, a value of 40 represents 60% growth inhibition. […]
Compounds without any hit were thinned out: in the full panel of roughly 83,000, 20% have a hit.
Can you tell me growth for the items I'm about to list?
Give bare numbers, in %.

molecule: COc1ccc(C(=O)NNc2nc(Cl)nc(N3CCN(C(c4ccccc4)c4ccccc4)CC3)n2)cc1
experimentalTarget: CAKI-1 renal
unitsSymbol: %
growth: 21.2
//
molecule: CC(=O)OC[C@]12CC[C@@H](C(=O)CBr)[C@@H]1[C@H]1CC[C@@H]3[C@@]4(C)CC[C@H](OC(C)=O)C(C)(C)[C@@H]4CC[C@@]3(C)[C@]1(C)CC2
experimentalTarget: CAKI-1 renal
unitsSymbol: %
growth: 77.4
//
molecule: COc1cc(/C=N/NC(=O)c2cnn3c2NC(c2ccccc2)C3)ccc1Oc1ccccc1 (centres undefined)
experimentalTarget: CAKI-1 renal
unitsSymbol: %
growth: 26

Field: next molecule
**Q:** Which growth value belongs to N#CC1C(C#N)C(C(=O)c2ccc(Br)cc2)N2c3ccccc3C=CC12 (centres undefined) ?
**A:** 50.7

###

# Tested on: MOLT-4 leukemia
# assayName: NCI-60 one-dose screen, 48 h
# settings: 10 µM unless noted
Compounds without any hit were thinned out: in the full panel of roughly 83,000, 20% have a hit. Calls of active or inactive are those of the source. The calls were made as follows: active = growth percent below 10; inactive = the rest.
Lab note: assign the record to one of active, inactive

Completed entries (count: 10):
compound: COC(=O)C1=C(C(=O)ON)[C@@H]2C=C[C@@]1([C@@H](Cc1ccccc1)Nc1ccccc1)O2
className: active
--
compound: CCN(CC)CCCC(C)Nc1cc(O)cc2cccnc12 (stereo not given)
className: inactive
--
compound: S=c1cc(S)c2cc(Br)ccc2[nH]1
className: inactive
--
compound: CC(C)(C)CC(C)(C)n1nnnc1C(NC12CC3CC(CC(C3)C1)C2)c1ccccc1 (stereo not given)
className: inactive
--
compound: O=S(=O)(NCCCNc1nccc(-c2c(-c3cccc(F)c3)nc3sccn23)n1)c1cccc(F)c1
className: active
--
compound: C=C1C(=O)O[C@H]2[C@H]1CC/C(COC(=O)NCc1c[nH]c3ccc(Cl)cc13)=C\CC[C@@]1(C)O[C@@H]21
className: active
--
compound: NNC(=O)c1ccc(-n2nc(-c3ccccc3)c3ccccc32)cc1
className: inactive
--
compound: COc1cc(/C=C\C(=O)O)ccc1OCc1ccccc1
className: inactive
--
compound: O=C(O)c1ccc(NCc2cn(-c3ccc(C(F)(F)F)cc3)nc2-c2ccc(C(=O)O)cc2)cc1
className: inactive
--
compound: CCOC(=O)c1cc(C#N)n2ccc3ccccc3c12
className: inactive

**Q:** Status in this test for COc1ccc(/C=C/c2nc(Nc3ccc(S(=O)(=O)Nc4cc(C)on4)cc3)c3ccccc3n2)cc1 ?
**A:** inactive

These data points were gathered from PubChem BioAssay (NCI).
